Assay: viability loss with induced miR-34 in A549 – imaging, A549 dox-inducible miR-34, nuclei and caspase counts, primary screen (AID 1347080)
Settings: A549 miR-34 inducible, Hoechst nuclei count, 48 h; measured here: total cells without miR-34 induction
Hi, to clarify the labels: 1 covers cell count from 9000 upward, 0 covers anything below 9000.

compound | qualitative.label
CC(C)(C)NC(=O)C1CCC2C3CCC4NC(=O)C=C[C@]4(C)C3CC[C@]12C (stereo partly specified) | 1
Fc1ccccc1-c1cc(NCc2ccncc2)n2nccc2n1 | 0
CC(NC(=O)C(Cc1ccccc1)NC(=O)OCc1ccccc1)C(=O)CF (stereo unspecified) | 1
CCCCCCCCCCCCCCCCOCC(CO)OC (stereo unspecified) | 0
C[C@@]12CC[C@H]3c4ccc(O)cc4CC(CCCCCCCCCS(=O)CCCC(F)(F)C(F)(F)F)[C@H]3[C@@H]1CCC2O (stereo partly specified) | 0
CC(C)C[C@@H](NC(=O)[C@H](Cc1ccccc1)NC(=O)c1cnccn1)B(O)O | 0
COc1ccc(CC(NC(=O)C(C)NC(=O)CN2CCOCC2)C(=O)NC(Cc2ccccc2)C(=O)[C@]2(C)CO2)cc1 (stereo partly specified) | 0
CCCc1cn(CC2CCCN(C(=O)c3nc4ncccn4n3)C2)nn1 (stereo unspecified) | 1
CNCC[C@H](Oc1ccc(C(F)(F)F)cc1)c1ccccc1 | 0
Fc1ccc(CC2CCNCC2)cc1 | 1
Nc1nc(NC(Cn2ccnc2)c2ccccc2)c2cn[nH]c2n1 (stereo unspecified) | 1
CC(=O)[C@H]1CCC2C3CC=C4C[C@@H](OS(=O)(=O)O)CC[C@]4(C)C3CC[C@@]21C (stereo partly specified) | 1
C[C@]1(OC(=O)/C=C/c2ccccc2)C[C@@H](O)[C@]2(O)C=CO[C@@H](O[C@@H]3O[C@H](CO)[C@@H](O)[C@H](O)[C@H]3O)[C@@H]21 | 1
CCCCNS(=O)(=O)c1ccccc1 | 1
C=CC1(C)CC(=O)C2(O)C(C)(O1)C(OC(C)=O)C(O)C1C(C)(C)CCC(O)C12C (stereo unspecified) | 1
CCCCC/C=C\C[C@@H](O)/C=C/C=C\C/C=C\CCCC(=O)O | 0
CC(O)=C(C#N)C(=O)Nc1ccc(C(F)(F)F)cc1 | 0
Cn1c(=O)ccc2ccccc21 | 1
CCCCCCCCCCCCCCC[C@@H](O)[C@H](CO)NC(=O)CCCCCCC | 0

###

Assay: drug combination growth inhibition, ovarian cancer – cell-based, oncology-focused library, rucaparib conditional, profiling panel (AID 1508598)
Details: patient-derived ovarian cancer cells, CellTiter-Glo viability, 144 h; at 0.000305 µM; OCI-P5x cells; with rucaparib 20 µM; 100% = cells with rucaparib alone
Active and inactive are the calls of the source.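 The calls were made as follows: active = normalized viability below 100% at a tested concentration; inactive = the rest.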
Labels: 1 (active), -1 (inactive)

compound | qualitative.label
C[C@@H]1C[C@H]2[C@@H]3CCC4=CC(=O)C=C[C@]4(C)[C@]3(F)[C@H](O)C[C@]2(C)[C@]1(O)C(=O)CO | -1
O=C(NCC1(c2nc(-c3ccccc3)cs2)CCOCC1)c1cccc(-c2noc(C(F)(F)F)n2)c1 | 1
CC(C)CC(CC(=O)NO)C(=O)N[C@@H](Cc1ccc2ccccc2c1)C(=O)N[C@@H](C)C(=O)NCCN (some centres undefined) | 1
COc1cccc2c1C(=O)c1c(O)c3c(c(O)c1C2=O)C[C@@](O)(C(=O)CO)C[C@H]3O[C@H]1C[C@H](N)[C@@H](O)[C@H](C)O1 | -1

###

Assay: compounds altering circadian rhythm period length – cell-based, LOPAC library, luminescence reporter (AID 2774);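 further: values are relative to mean of DMSO wells on each plate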
Settings: circadian reporter cells, at 7 µM, actives lie on both sides
The source made the active and inactive calls. The rule behind the calls is not given here.
observation.type: period change

compound | result
OC[C@H]1NC[C@@H](O)[C@@H]1O | -0.11 h (inactive)
Cc1cccc(C)c1OCC(N)C(C)C (stereo not given) | -0.08 h (inactive)
CCCCOC(=O)NS(=O)(=O)c1sc(CC(C)C)cc1-c1ccc(Cn2c(CC)nc3c(C)cc(C)nc32)cc1 | -0.005 h (inactive)
O=c1[nH]c2cc(Cl)ccc2c(O)c1-c1ccc(Oc2ccccc2)cc1 | -0.015 h (inactive)
Nc1ncnc2c1c(-c1ccc(Oc3ccccc3)cc1)cn2C1CCCC1 | 0.07 h (inactive)

###

Assay: compounds altering HSF1 focus formation in cells – imaging, Selleck Cancer Library (AID 1347162)
Settings: human cells, HSF1 nuclear foci imaging, at 10 µM; stronger effect = lower value
Activity calls are given as the source filed them. Rule as the data show it: active = plate-normalised HSF1 focus index below about 0.46; inactive = the rest.
Here the recorded plate-normalised HSF1 focus index is given for each entry.

molecule | plate-normalised HSF1 focus index
N#C/C(=C1/Nc2ccccc2S1)c1ccnc(NCCc2cccnc2)n1 | 1.16 (inactive)
C=CC(=O)N1CCCC(n2nc(-c3ccc(Oc4ccccc4)cc3)c3c(N)ncnc32)C1 (configuration not stated) | 1.17 (inactive)
Cc1oc(S(=O)(=O)N2CCCCC2)cc1NC(=O)Nc1ccccc1 | 1.17 (inactive)
O=C(Nc1ncc([N+](=O)[O-])s1)c1ccc([N+](=O)[O-])c(Cl)c1 | 1.15 (inactive)
N=C(N)SCCc1ccc(CCSC(=N)N)cc1 | 1.08 (inactive)
NC(=NCCC[C@H](N)C(=O)O)N[N+](=O)O | 1.18 (inactive)
N#CC[C@@H](C1CCCC1)n1cc(-c2ncnc3[nH]ccc23)cn1 | 1.12 (inactive)
COC(=O)c1ccc(O)c(NC(=O)COc2ccc(C34CC5CC(CC(C5)C3)C4)cc2)c1 | 0.766 (inactive)
O=C1Nc2ccc(-c3cccnc3)cc2/C1=C/c1ccc[nH]1 | 0.916 (inactive)
CCOC(=O)C1=C(O)C(=O)N(c2ccccc2)C1 | 1.16 (inactive)
COc1cc(C(=O)NC(=S)Nc2cccc(NC(=O)c3ccccc3)c2)cc(OC)c1OC | 1.24 (inactive)
COC(=O)[C@H](CCCN=C(N)N)NS(=O)(=O)c1ccc(C)cc1 | 1.08 (inactive)

###

Test: drug combination growth inhibition, ovarian cancer – cell-based, oncology-focused library, rucaparib conditional, profiling panel (AID 1508598)
Settings: patient-derived ovarian cancer cells, CellTiter-Glo viability, 144 h; at 5 µM; OCI-C5x cells; without rucaparib; stronger effect = lower value
Calls of active or inactive are those of the source.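 The calls were made as follows: active = normalized viability below 100% at a tested concentration; inactive = the rest.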 Where a SMILES comes first, the peptide text is derived from it. The star is where a group is joined. Cbz = O=C(OCc1ccccc1)*; CH2F = FC*

compound | viability
CCOC(=O)c1[nH]c2cc(Cl)ccc2c1C(C(=O)NC(C)(C)C)N(C=O)Cc1ccc(Cl)cc1 (stereo unspecified) | 120% (inactive)
C[C@@]12CC[C@H]3c4ccc(O)cc4C[C@@H](CCCCCCCCCS(=O)CCCC(F)(F)C(F)(F)F)[C@H]3[C@@H]1CC[C@@H]2O (stereo partly specified) | 128% (inactive)
CC1=C(/C=C/C(C)=C\C=C\C(C)=C/C(=O)O)C(C)(C)CCC1 | 104% (inactive)
CC(C)C[C@H](NP(=O)(O)O[C@@H]1O[C@@H](C)[C@H](O)[C@@H](O)[C@H]1O)C(=O)N[C@@H](Cc1c[nH]c2ccccc12)C(=O)O | 104% (inactive)
CN(C)CCOc1ccc(-c2nc(-c3ccc4c(c3)CCC4=NO)c(-c3ccncc3)[nH]2)cc1 | 187% (inactive)
C[C@@]1(c2nc3c(C(N)=O)cccc3[nH]2)CCCN1 | 108% (inactive)
CC#C[C@@]1(O)CC[C@H]2[C@@H]3CCC4=CC(=O)CCC4=C3[C@H](c3ccc(N(C)C)cc3)C[C@@]21C | 140% (inactive)
COc1cccc2c1C(=O)c1c(O)c3c(c(O)c1C2=O)C[C@@](O)(C(C)=O)C[C@H]3O[C@H]1C[C@H](N)[C@H](O)[C@H](C)O1 | 1.85% (active)
Cc1cc(C)c(S(=O)(=O)n2cc(C)cc2C)c(C)c1 | 110% (inactive)
CN(C)CCSSCCNC(=O)C1CCN(C(=O)CSc2ccc(Cl)cc2)CC1 | 140% (inactive)
OCCn1cc(-c2ccc3c(c2)CCC3=NO)c(-c2ccncc2)n1 | 137% (inactive)
Nc1nonc1C(=Nc1ccc(F)c(Cl)c1)NO | 120% (inactive)
CC(C)NCCCn1c(Sc2cc3c(cc2I)OCO3)nc2c(N)ncnc21 | 9.3% (active)
C[C@@H]1C[C@H]2[C@@H]3CCC4=CC(=O)C=C[C@]4(C)[C@]3(F)[C@H](O)C[C@]2(C)[C@]1(O)C(=O)CO | 108% (inactive)
CO[C@H]1C[C@H]2CC[C@@H](C)[C@@](O)(O2)C(=O)C(=O)N2CCCC[C@H]2C(=O)O[C@H]([C@H](C)C[C@@H]2CC[C@H](OC(=O)C(C)(CO)CO)[C@H](OC)C2)CC(=O)[C@H](C)/C=C(\C)[C@@H](O)[C@@H](OC)C(=O)[C@H](C)C[C@H](C)/C=C/C=C/C=C/1C | 88% (active)
COC(=O)C[C@H](NC(=O)[C@H](C)NC(=O)[C@@H](NC(=O)OCc1ccccc1)C(C)C)C(=O)CF (Cbz-Val-Ala-Asp(OMe)-CH2F) | 119% (inactive)
